Test system: CEM cells HIV-1 protection, formazan growth assay
Assay: NCI AIDS Antiviral Assay
Conditions: measured here: growth of uninfected CEM cells

{"COMPOUND": "CCOC(=O)C(CCCl)C(=O)OCC", "IC50": "> 200 µM"}
{"COMPOUND": "CNC(=S)/C(C#N)=C(\\N)N1CCCC1", "IC50": "> 200 µM"}
{"COMPOUND": "Nc1cccc2nnccc12", "IC50": "> 200 µM"}
{"COMPOUND": "N#Cc1ccc(Oc2nc3ccccc3nc2C(=O)O)cc1", "IC50": "> 200 µM"}
{"COMPOUND": "COc1ccc(-c2c(C#N)c(S)n(C3OC(COC(C)=O)C(OC(C)=O)C(OC(C)=O)C3OC(C)=O)c(=O)c2C#N)cc1 (centres undefined)", "IC50": "> 200 µM"}
{"COMPOUND": "OCC12CCCC(CO)(COC1)C2O (centres undefined)", "IC50": "> 200 µM"}
{"COMPOUND": "Nc1ccc(N=Nc2ccc(/C=C/c3ccc(N=Nc4ccc(N)c5cc(S(=O)(=O)O)ccc45)cc3S(=O)(=O)O)c(S(=O)(=O)O)c2)c2ccc(S(=O)(=O)O)cc12", "IC50": "30.2 µM"}
{"COMPOUND": "N#CC(c1ccc(O)cc1)N1CCN(C(C#N)c2ccc(O)cc2)CC1 (centres undefined)", "IC50": "> 200 µM"}
{"COMPOUND": "CCCCNC(=O)Cn1c2ccc(Br)cc2c2nc3ccccc3nc21", "IC50": "> 100 µM"}
{"COMPOUND": "Cc1cc(N(CCC#N)CCC#N)ccc1/C=C(\\N=[N+]=[N-])C(=O)NC(=O)COc1ccccc1", "IC50": "> 8.32 µM"}
{"COMPOUND": "NC(=O)Cn1c(=O)[nH]c(=O)c2[nH]cnc21", "IC50": "> 174 µM"}
{"COMPOUND": "O=C1C(=O)c2ccccc2C(O)=C1Sc1ccc(Cl)cc1", "IC50": "17.4 µM"}
{"COMPOUND": "O=C(CN1CCN(c2ccccc2)CC1)N1CCc2c([nH]c3ccccc23)C1c1cccnc1 (centres undefined)", "IC50": "> 1.58 µM"}
{"COMPOUND": "CCOC(=O)NN(C(=O)OCC)C(=C(c1ccccc1)N1CCOCC1)N(NC(=O)OCC)C(=O)OCC", "IC50": "> 200 µM"}
{"COMPOUND": "CN(C(=O)C12C3(C(=O)C(C)(C)C)C4C5(C#N)C3C1(C(=O)C(C)(C)C)C5C42C(=O)C(C)(C)C)C(C)(C)C (centres undefined)", "IC50": "> 52.5 µM"}
{"COMPOUND": "O=C1c2cccc3cccc(c23)C(=O)N1CCCN(CCO)CCO", "IC50": "12.3 µM"}
{"COMPOUND": "COc1ccc2c(c1)C(N)=C(c1ccccc1OC)C2=O", "IC50": "120 µM"}
{"COMPOUND": "CSc1nc2c(c(N(C)C)n1)C(O)n1c(nc3ccccc31)S2 (centres undefined)", "IC50": "> 200 µM"}
{"COMPOUND": "COC(=O)CC1CN(C(=O)OCc2ccccc2)C(C)(C)O1 (centres undefined)", "IC50": "> 200 µM"}
{"COMPOUND": "COC(=O)C1=C(OC)C(C(=O)OC)C23CCCC12C(C(=O)OC)C(OC)C3C(=O)OC (centres undefined)", "IC50": "> 135 µM"}
{"COMPOUND": "Cc1cc(C)c(COC(=O)NS(=O)(=O)Nc2ccccc2)c(C)c1", "IC50": "43.7 µM"}
{"COMPOUND": "COc1ccc2c(c1)CSC(c1ccccc1)C2=O (centres undefined)", "IC50": "55 µM"}
{"COMPOUND": "CC(C)(C1=NC(C(C)(C)C)CO1)C1=N[C@@H](C(C)(C)C)CO1 (some centres undefined)", "IC50": "> 251 µM"}
{"COMPOUND": "OC(c1ccc(-c2ccccc2)cc1)C(F)(F)c1nc2ccccc2o1 (centres undefined)", "IC50": "34.7 µM"}
{"COMPOUND": "COC(=O)CNC(=O)CCSc1nnc(COc2ccc(Cl)cc2)n1-c1ccccc1", "IC50": "33.9 µM"}
{"COMPOUND": "COc1cc2c(cc1OC)NC(=O)CC(=O)N2", "IC50": "> 200 µM"}
{"COMPOUND": "CCOC(=O)C(/C=N\\C(=S)Nc1c(CC)cccc1C(C)(C)C)=C(/O)c1ccccc1", "IC50": "> 200 µM"}
{"COMPOUND": "COc1ccc(C(=O)c2ccc(OC)c(S(=O)(=O)OC)c2)cc1S(=O)(=O)OC", "IC50": "> 43.7 µM"}
{"COMPOUND": "CC1C2=C(C(=O)N1Cc1ccccc1)C(C1OC(COC(=O)c3ccccc3)C(OC(=O)c3ccccc3)C1OC(=O)c1ccccc1)C(=O)N(C)C2=O (centres undefined)", "IC50": "> 7.24 µM"}
{"COMPOUND": "CN=C(NCCCN1CCOCC1)c1ccc(NC(=O)c2ccc(C(=O)Nc3ccc(C(=NC)NCCCN4CCOCC4)cc3)cc2)cc1", "IC50": "120 µM"}
{"COMPOUND": "O=C1OC2(O)c3ccccc3C(=O)N2N2CCCC12 (centres undefined)", "IC50": "> 692 µM"}
{"COMPOUND": "CC(C(=O)c1cc(O)c(O)cc1C(O)(C(F)(F)F)C(F)(F)F)C(O)(C(F)(F)F)C(F)(F)F (centres undefined)", "IC50": "> 100 µM"}
{"COMPOUND": "COc1ccc(N2C(=O)C3c4[nH]c5ccccc5c4C4CC(C)CC(C)C4C3C2=O)cc1 (centres undefined)", "IC50": "> 2.45 µM"}
{"COMPOUND": "O=C1OC(/C=C/c2ccccc2)C(=O)C1=O (centres undefined)", "IC50": "> 1150 µM"}
